system: Septoria tritici; test: Test G: wheat leaf blotch on wheat seedlings, sprayed the day before inoculation, visual disease rating; type: in vivo; conditions: 200 ppm; 100 = 100% disease control, 0 = no control relative to controls
Each entry below carries its recorded Test G disease control rating.
observation type: Test G disease control rating (%)

> print(dat)
                             compound.smiles  unit.abbrev  value.measured
 1  Cc1nc(Cl)c(-c2ccc(Cl)c(F)c2)n1-c1ccc(F)cc1Cl            %             100
 2  COc1ccc(F)c(-c2c(Cl)nc(Cl)n2-c2ccc(Cl)cc2)c1F            %              97
 3  COc1cc(F)c(-c2c(Cl)nc(Cl)n2-c2ccc(OC)nc2Cl)c(F)c1            %             100
 4  Cc1ccc(F)c(-c2c(Cl)nc(Br)n2-c2ccc(Cl)cc2)c1F            %              94
 5  COc1cc(F)c(-c2c(Cl)nc(Cl)n2-c2ccccc2)c(F)c1Cl            %              99
 6  COc1cc(F)c(-c2c(Cl)nc(C)n2-c2ccc(Cl)nc2)c(F)c1            %             100
 7  Cc1nc(Cl)c(-c2c(F)cccc2F)n1Cc1cccc(Cl)c1            %              96
 8  Cc1nc(Br)c(-c2ccc(Cl)cc2)n1-c1ccc(F)cc1Cl            %              93
 9  Cc1nc(Cl)c(-c2ccc(F)cc2Cl)n1-c1ccc(Cl)cc1            %              94
10  COc1ccc(-c2c(OC)nn(C)c2-c2c(F)cc(OC)cc2F)cc1            %             100
11  COc1cc(F)c(-c2c(Cl)ncn2-c2ccc(C)cc2)c(F)c1            %              99
12  N#Cc1ccc(F)c(-c2c(Cl)nc(Cl)n2-c2ccc(F)cc2)c1F            %              99
13  Cc1nc(Cl)c(Cc2c(F)cc(F)cc2F)n1-c1c(Cl)cccc1Cl            %              97
14   Cc1nn(C)c(-c2c(F)cccc2Cl)c1-c1cccc(F)c1            %               5
15  COc1ccc(F)c(-c2c(Br)nc(Cl)n2-c2ccc(F)cc2)c1F            %              96
16  Cc1nc(Cl)c(-c2c(F)cc(F)cc2F)n1-c1ccc(OC(F)F)cc1            %              99
17  COc1cc(OC)c(Cl)c(-n2cnc(Br)c2-c2ccc(Cl)cc2F)c1            %              99
18  Cc1ccc(F)c(-c2c(Cl)ncn2-c2ccc(Cl)cc2)c1F            %              95
19  COc1cc(F)c(-c2c(Cl)nc(N)n2-c2ccc(Cl)cc2)c(F)c1            %              99
20  Cc1nc(Cl)c(-c2c(F)cc(O)cc2F)n1-c1ccc(Cl)cc1            %              91
21  COc1ccc(F)c(-c2c(Cl)nc(Cl)n2-c2ccc(F)cc2)c1F            %              95
22  COc1cc(F)c(-c2c(-c3ccc(F)cc3)c(OC)nn2C)c(F)c1            %             100
23  Fc1ccc(F)c(-c2c(Cl)nc(Br)n2-c2ccc(Cl)cc2)c1F            %              92
24  COc1cc(F)c(-c2c(Cl)nc(Cl)n2-c2cccnc2OC)c(F)c1            %              99
25  Cc1nc(Cl)c(-c2c(F)cccc2F)n1Cc1ccc(Cl)cc1            %              93
26   Fc1cccc(-n2cnc(Cl)c2-c2c(F)ccc(F)c2F)c1            %              58
27  COc1cc(F)c(-c2c(-c3ccc(Cl)cc3)c(OC)nn2C)c(F)c1            %             100
28  N#Cc1ccc(-n2cnc(Cl)c2-c2c(F)ccc(C#N)c2F)cc1            %               0
29  COc1cc(F)c(-c2c(Cl)nc(C)n2-c2ccc(OC)nc2)c(F)c1            %              99
30  COc1ccc(F)c(-c2c(Cl)ncn2-c2ccc(Cl)cc2)c1F            %              98
31  COc1cc(F)c(-c2c(C)nc(Br)n2-c2ccc(OC)nc2)c(F)c1            %             100
32  Cc1nn(C)c(-c2c(Cl)cccc2Cl)c1-c1ccc(Cl)c(F)c1            %               3
33  Fc1cc(-n2c(Cl)nc(CCl)c2-c2ccc(Br)cn2)ccc1Cl            %              50
34  Fc1ccc(F)c(-c2c(Br)nc(Cl)n2-c2ccc(Cl)cc2)c1F            %              93
35  Cc1nc(Br)c(Cc2c(F)cc(F)cc2F)n1-c1c(Cl)cccc1Cl            %              99
36  COc1ccc(F)c(-c2c(Cl)nc(Cl)n2-c2ccc(C)cc2)c1F            %              96

Attribution: patent US20110045101A1
